- Tested on: AsPC-1 cells
- PROTOCOL_DESCRIPTION: Gemcitabine co-treatment, MTT cell death assay
- Assay type: cell-based
- SETTINGS: Homo sapiens, ASPC1, 72 h, GEM+PBS group, 72 hours
QUANTITY_MEASURED: IC50 (nM)
Enter your answer as a number in nM; do not include the unit.

Give a short answer stating reported IC50 for Nc1ccn([C@@H]2O[C@H](CO)[C@@H](O)C2(F)F)c(=O)n1 [GEM, gemcitabine] .
127

FYI, the data here is from patent US12291578B2.
